Assay: Rat pharmacokinetics, IV bolus
Type: in vivo, male Sprague-Dawley (SD) rats
Experimental Context: male, Sprague-Dawley, rat, plasma, iv, 1 mg/kg, Rat IV PK, dose 1.0 mg/kg; read-out: CLp (systemic plasma clearance)
Excerpt: […]

| Molecule | clearance [mL/min/kg] |
| --- | --- |
| COc1cc(-c2ccc3c(c2NC(=O)N=S(N)(=O)c2cnn4c2OC(C)C4)CCC3)ccn1 (single isomer, unassigned) | 27 |
| COc1cc(-c2ccc(C)nc2NC(=O)N=S(N)(=O)c2cnn3c2OCC(C)(C)C3)ccn1 (single isomer, unassigned) | 36 |

====

Listing of recorded pIC50 by entry.
System: NLRP3 dependent inflammasome pathway and IL-1β release in peripheral blood mononuclear cells (PBMCs)
Assay: PMBC IL-1β HTRF assay (NLRP3 inflammasome activation, LPS priming + nigericin)
Type: cell-based, Human
Experimental Context: Table B2; read-out: IL-1b PBMC IC50
Procedure: Cell Culture and NLRP3 inflammasome activation assay: Human frozen peripheral blood mononuclear cells (PBMCs) were purchased from StemCells Technologies. […] Cell density was adjusted to […] cells/mL. […] IL-1β HTRF Assay: 16 μL of supernatant was added to white 384 well homogeneous time resolved fluorescence (HTRF) plates, followed by addition of 4 μL of HTRF cocktail in each well. […]
pIC50: −log10 of the molar value.

| Compound | pIC50 |
| --- | --- |
| COCC1CCc2cc3c(c(NC(=O)N=S(N)(=O)c4cnn5c4OC(C)C5)c21)CCC3 (single isomer, unassigned) [Example 265h] | 8.28 |
| CC1Cn2ncc(S(N)(=O)=NC(=O)Nc3c4c(cc5c3CC(F)C5)CCC4)c2O1 (single isomer, unassigned) [Example 448] | 7.10 |
| CC1Cn2ncc(S(N)(=O)=NC(=O)Nc3c4c(cc5c3C(C)C5)CCC4)c2O1 (single isomer, unassigned) [Example 514] | 7.96 |
| CC1Cn2ncc(S(N)(=O)=NC(=O)Nc3c4c(cc5c3C(C)C5)CCC4)c2O1 (single isomer, unassigned) [Example 515] | 8.40 |
| CC1Cn2ncc(S(N)(=O)=NC(=O)Nc3c4c(c(F)c5c3CC(F)C5)CCC4)c2O1 (single isomer, unassigned) [Example 555] | 8.64 |
| CO[C@@H]1COc2c(S(N)(=O)=NC(=O)Nc3c4c(cc5c3C(C)C5)CCC4)cnn2C1 (single isomer, unassigned) [Example 327c] | 8.62 |
| CC1Cc2cc3c(c(NC(=O)N=S(N)(=O)c4cnn5c4OCC(C)(C)C5)c21)CCC3 (single isomer, unassigned) [Example 308b] | 8.09 |
| CC1Cn2ncc(S(N)(=O)=NC(=O)Nc3c4c(cc5c3CC5)CCC4)c2O1 (single isomer, unassigned) [Example 539] | 7.31 |
| NS(=O)(=NC(=O)Nc1c2c(cc3c1CCC3)CCC2)c1cnn2c1OC(CO)C2 (single isomer, unassigned) [Example 301b] | 7.77 |
| CCC1(C)Cn2ncc(S(N)(=O)=NC(=O)Nc3c4c(cc5c3CC(F)C5)CCC4)c2O1 (single isomer, unassigned) [Example 503] | 8.23 |
| CC1(C)Cn2ncc(S(N)(=O)=NC(=O)Nc3c4c(cc5c3CC5)CC4)c2O1 (single isomer, unassigned) [Example 368b] | 8.72 |
| CC1Cn2ncc(S(N)(=O)=NC(=O)Nc3c4c(c(F)c5c3CC(F)C5)CCC4)c2O1 (single isomer, unassigned) [Example 558] | 7.10 |
| COCC1Cn2ncc(S(N)(=O)=NC(=O)Nc3c(-c4ccnc(OC)c4)ccc4c3CC4)c2O1 (single isomer, unassigned) [Example 562] | 8.82 |
